tested on: Toxoplasma gondii RH-2F tachyzoites; conditions: preliminary screen of compound library; mean
endpoint: Parasite inhibition (%) mean

Answered cases to consult:
What Parasite inhibition (%) mean value was documented for this molecule, [I-].[K+] [Potassium iodide] ? 10.2%

# repeat for CNC(=O)CN(CCN(CCN(CC(=O)[O-])CC(=O)NC)CC(=O)[O-])CC(=O)[O-].O.[Gd+3] [Gadodiamide (Omniscan)] -0.2%

# repeat for Cl.N=C(N)N [Guanidine HCl] -3.4%

Others:
What Parasite inhibition (%) mean value was documented for this molecule, "CC(O)C(=O)O.CC(O)C(=O)O.CN1CCN(c2ccc3nc(-c4c(N)c5c(F)cccc5[nH]c4=O)[nH]c3c2)CC1" ? 18.2%

# repeat for N[C@@H]1CN(c2c(F)cc3c(=O)c(C(=O)O)cn([C@@H]4C[C@@H]4F)c3c2Cl)CC12CC2.O [Sitafloxacin hydrate] 53.1%

# repeat for Cl.NC(=O)c1cnc(N[C@@H]2CCCC[C@@H]2N)nc1Nc1cccc(-n2nccn2)c1 [PRT062607 HCl] 17.8%

# repeat for O=S(=O)(F)Cc1ccccc1 [PMSF (Phenylmethylsulfonyl Fluoride)] 0.8%
